study.system: RPS6KA5 KD1 KD2 (human) (UniProt O75582)
Sequence (O75582 whole entry, looked up): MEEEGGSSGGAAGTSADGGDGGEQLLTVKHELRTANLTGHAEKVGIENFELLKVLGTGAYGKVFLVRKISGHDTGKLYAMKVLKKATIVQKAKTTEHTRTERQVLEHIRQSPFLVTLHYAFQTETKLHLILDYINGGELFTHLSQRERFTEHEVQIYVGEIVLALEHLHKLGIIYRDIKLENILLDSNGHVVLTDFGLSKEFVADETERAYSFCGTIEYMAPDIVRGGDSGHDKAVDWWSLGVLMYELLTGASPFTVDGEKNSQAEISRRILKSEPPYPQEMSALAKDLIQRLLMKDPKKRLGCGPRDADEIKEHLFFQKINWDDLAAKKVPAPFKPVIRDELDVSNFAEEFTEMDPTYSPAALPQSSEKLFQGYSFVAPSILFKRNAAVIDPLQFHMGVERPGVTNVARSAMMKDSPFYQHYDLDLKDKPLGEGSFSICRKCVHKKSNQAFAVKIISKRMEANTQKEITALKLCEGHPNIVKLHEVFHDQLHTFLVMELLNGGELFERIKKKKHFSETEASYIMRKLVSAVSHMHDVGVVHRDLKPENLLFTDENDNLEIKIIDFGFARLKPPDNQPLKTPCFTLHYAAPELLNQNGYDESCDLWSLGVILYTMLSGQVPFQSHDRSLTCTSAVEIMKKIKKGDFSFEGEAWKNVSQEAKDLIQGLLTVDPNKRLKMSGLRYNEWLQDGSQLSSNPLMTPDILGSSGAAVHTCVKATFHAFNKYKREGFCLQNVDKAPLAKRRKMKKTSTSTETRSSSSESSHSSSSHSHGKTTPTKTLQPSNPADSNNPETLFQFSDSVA
test.details: radiometric filter-binding kinase assay
experimental.setup: compound 10.0 µM
recorded.metric: residual activity (%)

Previously resolved entries follow.
[[record]]
compound = "O=C(NOC[C@H](O)CO)c1ccc(F)c(F)c1Nc1ccc(I)cc1Cl"
unit_text = "%"
recorded_number = 96

[[record]]
compound = "O=C(NOCC(O)CO)c1ccc(F)c(F)c1Nc1ccc(I)cc1Cl (configuration not stated)"
unit_text = "%"
recorded_number = 96

[[record]]
compound = "CC(C)(C#N)c1ccc(N2C(=O)OCc3cnc4ccc(-c5cnc6ccccc6c5)cc4c32)cc1"
unit_text = "%"
recorded_number = 53


[1] NCC(=O)Nc1ccc(-n2nc(C(F)(F)F)cc2-c2ccc3c(ccc4ccccc43)c2)cc1
[2] NC(=O)c1cc2c(-c3cccc(-c4ccccc4)c3)cnc(N)c2s1
[3] NC(=O)Nc1ccc2c(c1)/C(=C/c1cc(-c3cccnc3)c[nH]1)C(=O)N2
[4] Cc1cccc(Nc2nn(C)c3ncnc(N)c23)c1
Sequence the entries by residual activity, beginning with the highest number. Provide your answer as the labels ordered per the instruction. 4, 2, 1, 3
(4: 100%, 2: 70%, 1: 46%, 3: 30%)

[I] C=CC(=O)N1CCC[C@@H](n2nc(-c3ccc(Oc4ccccc4)cc3)c3c(N)ncnc32)C1
[II] CCCCCc1ccc(/C=C/[C@H](O)[C@@H](CO)NC)cc1
[III] O=C1Nc2nc(-c3c(O)cccc3OCC3CC3)cc(C3CCCNC3)c2CO1 (configuration not stated)
Please give the order of these compounds when sorted by residual activity, largest value leading. Note for the reader: the ranking is given by listing the labels in the order requested. II, I, III
(II: 95%, I: 55%, III: 31%)

* * *

study.system: UniProt P54764
Sequence (P54764 whole entry, looked up): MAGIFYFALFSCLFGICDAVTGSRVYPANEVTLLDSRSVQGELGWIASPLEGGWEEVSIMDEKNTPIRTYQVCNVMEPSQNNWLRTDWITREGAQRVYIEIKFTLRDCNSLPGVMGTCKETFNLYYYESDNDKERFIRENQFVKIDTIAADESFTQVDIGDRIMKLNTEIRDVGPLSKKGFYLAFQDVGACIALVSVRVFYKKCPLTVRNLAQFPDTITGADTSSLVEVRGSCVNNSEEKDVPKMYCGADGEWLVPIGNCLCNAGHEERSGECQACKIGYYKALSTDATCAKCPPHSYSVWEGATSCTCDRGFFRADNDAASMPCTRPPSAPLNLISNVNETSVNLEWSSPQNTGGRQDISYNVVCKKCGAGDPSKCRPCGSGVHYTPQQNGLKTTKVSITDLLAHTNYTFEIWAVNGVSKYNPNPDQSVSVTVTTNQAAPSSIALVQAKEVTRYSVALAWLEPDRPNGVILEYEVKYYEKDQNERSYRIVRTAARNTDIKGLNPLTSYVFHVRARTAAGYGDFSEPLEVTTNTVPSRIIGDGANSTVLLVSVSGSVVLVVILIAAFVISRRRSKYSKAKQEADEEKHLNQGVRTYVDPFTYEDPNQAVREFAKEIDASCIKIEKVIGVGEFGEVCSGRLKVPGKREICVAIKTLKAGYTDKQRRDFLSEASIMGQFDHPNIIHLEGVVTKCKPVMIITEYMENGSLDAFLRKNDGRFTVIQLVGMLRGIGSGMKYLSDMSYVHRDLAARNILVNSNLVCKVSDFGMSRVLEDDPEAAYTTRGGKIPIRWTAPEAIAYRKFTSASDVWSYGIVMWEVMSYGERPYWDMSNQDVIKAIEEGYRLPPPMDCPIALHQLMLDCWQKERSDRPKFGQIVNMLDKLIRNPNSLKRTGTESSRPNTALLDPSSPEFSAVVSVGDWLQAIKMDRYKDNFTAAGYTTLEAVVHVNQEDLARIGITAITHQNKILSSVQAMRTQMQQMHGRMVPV
test.details: radiometric filter-binding kinase assay
experimental.setup: compound 1.0 µM
recorded.metric: residual activity (%)

[a] O=C(Nc1ccccc1-c1cn2c(CN3CCNCC3)csc2n1)c1cnc2ccccc2n1
[b] CNC(=O)C1[C@H]2O[C@@](C)([C@@H]1N)n1c3ccccc3c3c4c(c5c6ccccc6n2c5c31)C(=O)NC4 (some centres undefined)
Quick check, higher residual activity between a and b ? // return label of chosen record a

* * *

study.system: MARK1 (human) (UniProt Q9P0L2)
Sequence (Q9P0L2 whole entry, looked up): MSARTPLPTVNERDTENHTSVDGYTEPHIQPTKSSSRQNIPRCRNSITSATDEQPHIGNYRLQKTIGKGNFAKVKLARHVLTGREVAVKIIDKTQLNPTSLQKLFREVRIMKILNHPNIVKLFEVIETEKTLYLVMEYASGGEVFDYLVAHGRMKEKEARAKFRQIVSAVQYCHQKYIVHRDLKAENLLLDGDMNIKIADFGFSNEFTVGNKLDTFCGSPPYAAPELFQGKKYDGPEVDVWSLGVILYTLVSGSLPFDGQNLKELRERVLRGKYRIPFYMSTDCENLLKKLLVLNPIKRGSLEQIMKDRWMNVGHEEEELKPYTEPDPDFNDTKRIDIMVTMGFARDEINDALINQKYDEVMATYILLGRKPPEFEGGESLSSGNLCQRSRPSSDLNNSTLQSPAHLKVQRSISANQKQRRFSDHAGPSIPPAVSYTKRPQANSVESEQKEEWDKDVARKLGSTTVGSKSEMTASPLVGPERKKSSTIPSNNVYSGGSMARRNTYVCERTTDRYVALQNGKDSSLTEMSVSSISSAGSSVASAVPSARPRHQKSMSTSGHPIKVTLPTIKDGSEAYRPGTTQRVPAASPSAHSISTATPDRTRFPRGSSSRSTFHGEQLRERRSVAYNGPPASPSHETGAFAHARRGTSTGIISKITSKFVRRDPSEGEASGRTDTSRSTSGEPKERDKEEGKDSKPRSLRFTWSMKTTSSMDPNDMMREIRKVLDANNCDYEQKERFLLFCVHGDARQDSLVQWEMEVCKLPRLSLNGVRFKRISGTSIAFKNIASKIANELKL
test.details: radiometric filter-binding kinase assay
experimental.setup: compound 10.0 µM
recorded.metric: residual activity (%)

Known results for molecules:
[[record]]
molecule = "O=C(N[C@@H](COc1ccc2[nH]c(=O)[nH]c2c1)c1ccccc1)c1cccn(Cc2ccc(F)c(F)c2)c1=O"
study_system = "MARK1 (human) (UniProt Q9P0L2)"
recorded_metric = "residual activity"
recorded_number = 107

[[record]]
molecule = "CC1=C(CO)C(=O)O[C@@H]([C@@H](C)[C@H]2CC[C@H]3[C@@H]4C[C@H]5O[C@]56[C@@H](O)C=CC(=O)[C@]6(C)C4CC[C@]23C)C1 (stereo partly specified)"
study_system = "MARK1 (human) (UniProt Q9P0L2)"
recorded_metric = "residual activity"
recorded_number = 111

[[record]]
molecule = "CCNc1nc(Nc2cc(F)c(C(=O)N3CCOCC3)cc2OC)ncc1C(F)(F)F"
study_system = "MARK1 (human) (UniProt Q9P0L2)"
recorded_metric = "residual activity"
recorded_number = 58

[[record]]
molecule = "N#Cc1c(C2CCNCC2)cc(-c2c(O)cccc2OCC2CC2)nc1N"
study_system = "MARK1 (human) (UniProt Q9P0L2)"
recorded_metric = "residual activity"
recorded_number = 95

[[record]]
molecule = "COc1cc(C(=O)N2CCOCC2)c(F)cc1Nc1ncc(C(F)(F)F)c(NC2CC2)n1"
study_system = "MARK1 (human) (UniProt Q9P0L2)"
recorded_metric = "residual activity"
recorded_number = 85


[I] COC(=O)/C=C/C(=O)OC
[II] NC(=O)c1cc2c(-c3cccc(-c4ccccc4)c3)cnc(N)c2s1
// select label with min value of measured residual activity from [ I , II ] Let me know the label of the one you choose. II
(II: 37%, I: 98%)

[I] O=C(NOCC(O)CO)c1ccc(F)c(F)c1Nc1ccc(I)cc1Cl (stereo unspecified)
[II] NS(=O)(=O)OC[C@@H]1C[C@@H](n2ccc3c(N[C@H]4CCc5ccccc54)ncnc32)C[C@@H]1O
// max by residual activity over [ I , II ] The response must carry the label of the picked entry. II

* * *

study.system: SYK (human) (UniProt P43405)
test.details: radiometric filter-binding kinase assay
experimental.setup: compound 0.1 µM
recorded.metric: residual activity (%)

[[record]]
molecule = "Cn1c(=O)c2c(ncn2C)n(C)c1=O"
recorded_number = 92

[[record]]
molecule = "CN(C)C/C=C/C(=O)Nc1cccc(C(=O)Nc2ccc(Nc3nccc(-c4cccnc4)n3)cc2)c1"
recorded_number = 89

[[record]]
molecule = "COc1cc(O)c2c(c1)[C@H]1OC1C[C@H](O)[C@H](O)C(=O)/C=C\\C[C@H](C)OC2=O (stereo not given in full)"
recorded_number = 108

[[record]]
molecule = "CNc1nc(-c2ccc3c(N)n[nH]c3c2)cc(N2C[C@@H](C(=O)NC3CCCCC3)CC[C@H]2C)n1"
recorded_number = 105

[[record]]
molecule = "Cc1cc(NC(=O)c2cccc(NC(=O)/C=C/CN(C)C)c2)ccc1Nc1nccc(-c2cccnc2)n1"
recorded_number = 103


* * *

Tested on: OXSR1 (human), O95747 [T185E]
Sequence (O95747 whole entry T185E, looked up): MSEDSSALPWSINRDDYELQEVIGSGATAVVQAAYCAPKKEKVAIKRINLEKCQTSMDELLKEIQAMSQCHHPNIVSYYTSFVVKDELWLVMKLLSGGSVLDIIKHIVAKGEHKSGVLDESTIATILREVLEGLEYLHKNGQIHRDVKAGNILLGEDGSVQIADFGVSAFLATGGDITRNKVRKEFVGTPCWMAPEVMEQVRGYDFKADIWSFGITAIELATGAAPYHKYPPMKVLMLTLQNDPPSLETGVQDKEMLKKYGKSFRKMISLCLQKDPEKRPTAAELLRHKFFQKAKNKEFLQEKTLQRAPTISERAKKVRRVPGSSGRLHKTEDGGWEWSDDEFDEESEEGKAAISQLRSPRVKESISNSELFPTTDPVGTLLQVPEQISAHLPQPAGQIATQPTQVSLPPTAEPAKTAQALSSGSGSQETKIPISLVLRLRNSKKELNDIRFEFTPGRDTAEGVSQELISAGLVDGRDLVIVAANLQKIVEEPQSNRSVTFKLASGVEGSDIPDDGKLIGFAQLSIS
test.details: radiometric filter-binding kinase assay
experimental.setup: compound 1.0 µM
recorded.metric: residual activity (%)

[[record]]
compound = "Cc1ccc(-c2ccc3c(ccc4sc5c(c43)NC[C@@H](C)NC5=O)n2)cn1"
recorded_number = 112

[[record]]
compound = "Cc1cc(NC(=O)c2cccc(NC(=O)/C=C/CN(C)C)c2)ccc1Nc1nccc(-c2cccnc2)n1"
recorded_number = 91

[[record]]
compound = "CCn1c(-c2nonc2N)nc2cncc(CNC3CCNCC3)c21"
recorded_number = 102

[[record]]
compound = "Nc1cccc2c1CN(C1CCC(=O)NC1=O)C2=O (stereo not given)"
recorded_number = 91

[[record]]
compound = "NC(=O)c1cc(-c2ccnc(NC3CCCCC3)c2)nc(N2CCNCC2)c1"
recorded_number = 104


* * *

study.system: MAP3K11 (human) (UniProt Q16584)
Sequence (Q16584 whole entry, looked up): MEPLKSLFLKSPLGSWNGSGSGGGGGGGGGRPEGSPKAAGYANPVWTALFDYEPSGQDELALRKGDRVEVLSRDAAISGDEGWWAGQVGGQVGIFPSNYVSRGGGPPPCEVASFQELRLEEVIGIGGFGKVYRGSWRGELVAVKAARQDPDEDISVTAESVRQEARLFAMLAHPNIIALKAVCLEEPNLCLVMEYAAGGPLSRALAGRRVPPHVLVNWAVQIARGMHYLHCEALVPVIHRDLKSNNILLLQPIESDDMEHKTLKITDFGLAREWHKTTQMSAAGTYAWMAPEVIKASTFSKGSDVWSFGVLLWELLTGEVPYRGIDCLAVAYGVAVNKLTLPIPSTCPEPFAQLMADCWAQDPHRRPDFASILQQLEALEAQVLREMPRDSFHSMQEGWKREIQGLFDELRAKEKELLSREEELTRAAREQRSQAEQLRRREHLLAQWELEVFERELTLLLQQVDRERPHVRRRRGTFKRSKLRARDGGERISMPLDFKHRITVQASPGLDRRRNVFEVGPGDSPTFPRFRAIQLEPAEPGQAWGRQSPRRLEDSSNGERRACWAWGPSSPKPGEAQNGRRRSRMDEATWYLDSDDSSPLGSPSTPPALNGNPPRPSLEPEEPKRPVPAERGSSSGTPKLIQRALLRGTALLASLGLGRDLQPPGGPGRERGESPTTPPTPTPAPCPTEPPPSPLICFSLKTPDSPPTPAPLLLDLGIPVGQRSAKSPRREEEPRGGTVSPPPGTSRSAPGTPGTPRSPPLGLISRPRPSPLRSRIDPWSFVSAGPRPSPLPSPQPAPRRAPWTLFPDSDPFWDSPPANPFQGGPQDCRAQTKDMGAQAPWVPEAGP
test.details: radiometric filter-binding kinase assay
experimental.setup: compound 10.0 µM
recorded.metric: residual activity (%)

Reference set, count: 5
[[record]]
compound = "N#Cc1c(O)c2c(-c3ccc(-c4ccccc4O)cc3)csc2[nH]c1=O"
study_system = "MAP3K11 (human) (UniProt Q16584)"
recorded_metric = "residual activity"
recorded_number = 43

[[record]]
compound = "NCC(=O)Nc1ccc(-n2nc(C(F)(F)F)cc2-c2ccc3c(ccc4ccccc43)c2)cc1"
study_system = "MAP3K11 (human) (UniProt Q16584)"
recorded_metric = "residual activity"
recorded_number = 87

[[record]]
compound = "NC(=O)c1c(NC(=O)C2CC2)sc2c1CCCC2"
study_system = "MAP3K11 (human) (UniProt Q16584)"
recorded_metric = "residual activity"
recorded_number = 37

[[record]]
compound = "CCCC(CCC)C(=O)O"
study_system = "MAP3K11 (human) (UniProt Q16584)"
recorded_metric = "residual activity"
recorded_number = 104

[[record]]
compound = "O=C(O)c1cc(N=Nc2ccc(S(=O)(=O)Nc3ccccn3)cc2)ccc1O"
study_system = "MAP3K11 (human) (UniProt Q16584)"
recorded_metric = "residual activity"
recorded_number = 71


[P] O=C(NOCC(O)CO)c1ccc(F)c(F)c1Nc1ccc(I)cc1Cl (stereo not given)
[Q] NC(=O)c1ccc(-c2ccc(Oc3cncc4sc(-c5nn[nH]n5)cc34)cc2)cc1
Hi there, can you help? I need to know whether P or Q has lower measured residual activity. Kindly give the label for the entry you pick. Q
(Q: 25%, P: 89%)

[1] Cc1ccc(Sc2cnc(Nc3cccc(Br)n3)s2)cc1C(=O)N1CCN(C(=O)CN)CC1
[2] CC(C)C[C@H](NC(=O)CNC(=O)c1cc(Cl)ccc1Cl)B1OC(=O)CC(CC(=O)O)(C(=O)O)O1 (stereo not given in full)
From the recorded data, which exceeds the other in residual activity: 1 or 2 ? Indicate which entry you chose by stating its label. 2

* * *

study.system: RPS6KA1 KD1 KD2 (human)
test.details: radiometric filter-binding kinase assay
experimental.setup: compound 0.01 µM
recorded.metric: residual activity (%)

[[record]]
compound = "COc1ccc(N(C(=O)Nc2c(C)cccc2C)c2cc(Nc3ccc(N4CCN(C)CC4)cc3)ncn2)c(OC)c1"
study_system = "RPS6KA1 KD1 KD2 (human)"
recorded_metric = "residual activity"
unit_text = "%"
recorded_number = 106

[[record]]
compound = "CNc1nc(-c2ccc3c(N)n[nH]c3c2)cc(N2C[C@@H](C(=O)NC3CCCCC3)CC[C@H]2C)n1"
study_system = "RPS6KA1 KD1 KD2 (human)"
recorded_metric = "residual activity"
unit_text = "%"
recorded_number = 123


[A] O=C(Nc1nc2cc(C(F)(F)F)cc(NC3CC3)n2n1)c1cccnc1
[B] CNC(=O)C1[C@H]2O[C@@](C)([C@@H]1N)n1c3ccccc3c3c4c(c5c6ccccc6n2c5c31)C(=O)NC4 (stereo not given in full)
I'm curious whether A or B has the smaller residual activity number. Which is it? Indicate your choice by writing its label. B
(B: 9%, A: 99%)

Origin of the recorded values: the kinase profiling compilation of Christmann-Franck et al. (2016)
